TARGET OF ASSAY: 72 kDa type IV collagenase (Homo sapiens) (UniProt P08253)
Sequence (P08253 whole entry, looked up): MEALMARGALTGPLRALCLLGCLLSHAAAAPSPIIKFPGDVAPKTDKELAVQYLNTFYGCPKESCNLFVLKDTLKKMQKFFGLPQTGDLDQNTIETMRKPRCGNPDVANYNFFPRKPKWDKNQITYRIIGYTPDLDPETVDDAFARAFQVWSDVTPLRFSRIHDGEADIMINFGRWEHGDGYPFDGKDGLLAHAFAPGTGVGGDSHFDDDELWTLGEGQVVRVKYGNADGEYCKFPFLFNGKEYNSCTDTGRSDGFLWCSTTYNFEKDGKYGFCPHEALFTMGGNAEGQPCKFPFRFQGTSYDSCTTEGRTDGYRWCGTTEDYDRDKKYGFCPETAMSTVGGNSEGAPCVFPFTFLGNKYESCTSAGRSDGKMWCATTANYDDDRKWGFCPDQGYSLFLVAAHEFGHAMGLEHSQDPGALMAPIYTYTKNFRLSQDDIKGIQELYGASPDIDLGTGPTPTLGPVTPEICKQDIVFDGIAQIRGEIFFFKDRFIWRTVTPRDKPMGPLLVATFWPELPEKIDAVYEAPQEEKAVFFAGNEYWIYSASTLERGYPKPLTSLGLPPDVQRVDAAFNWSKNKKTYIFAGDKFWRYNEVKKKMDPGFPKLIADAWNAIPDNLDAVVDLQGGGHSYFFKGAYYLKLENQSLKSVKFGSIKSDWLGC
MEASUREMENT PROTOCOL: MMP-2 inhibition counter-screen for RPN11 hits, SAR follow-up, counter-screen for RPN11 inhibitor project, biochemical, fluorescence (AID 686932)
ASSAY CONTEXT: recombinant MMP-2, FRET peptide cleavage fluorescence
Active and inactive are the calls of the source.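 Rule for the calls: active = IC50 against MMP-2 at or below 100 µM; inactive = the rest.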
The reply should be one of these categories: 1 (yes) (active), 0 (no) (inactive)

Example entries and their recorded answers appear below.
SMILES REPRESENTATION	GROUP LABEL
O=C(Sc1cccc2cccnc12)C1CCCCC1	1 (yes)
O=C(Sc1cccc2cccnc12)c1ccccc1I	1 (yes)
O=C(Sc1cccc2cccnc12)c1ccc(F)cc1F	1 (yes)
CC[C@@H](C)[C@H](NC(=O)c1cnc2c(SSc3cccc4cc(C(=O)N[C@H](C(=O)OC)[C@@H](C)CC)cnc34)cccc2c1)C(=O)OC	0 (no)
COC(=O)[C@@H]1CCCN1C(=O)c1cnc2c(SSc3cccc4cc(C(=O)N5CCC[C@H]5C(=O)OC)cnc34)cccc2c1	0 (no)
COC(=O)[C@H](CC(C)C)NC(=O)c1cnc2c(SSc3cccc4cc(C(=O)N[C@@H](CC(C)C)C(=O)OC)cnc34)cccc2c1	0 (no)

What outcome does the record of this test show for CC(C)C[C@H](NC(=O)c1cnc2c(SSc3cccc4cc(C(=O)N[C@@H](CC(C)C)C(=O)O)cnc34)cccc2c1)C(=O)O ? 1 (yes)

What call does the record list for COc1ccc(C(=O)Sc2cccc3cccnc23)cc1 ? 1 (yes)

Could you check what this test reported for COC(=O)[C@H](C)N(C)C(=O)c1cnc2c(SSc3cccc4cc(C(=O)N(C)[C@@H](C)C(=O)OC)cnc34)cccc2c1 ? 0 (no)

Identify the outcome logged in this assay for the compound shown: COC(=O)c1cnc2c(SSc3cccc4cc(C(=O)OC)cnc34)cccc2c1 1 (yes)

Tell me the recorded outcome of this test for O=C(Sc1cccc2cccnc12)c1ccccc1OC(F)(F)F . 0 (no)

Tell me the recorded outcome of this test for O=C(O)[C@@H]1CCCN1C(=O)c1cnc2c(SSc3cccc4cc(C(=O)N5CCC[C@H]5C(=O)O)cnc34)cccc2c1 . 1 (yes)

What is the recorded call for this compound in the test? N#Cc1ccc(C(=O)Sc2cccc3cccnc23)cc1 1 (yes)

Could you kindly confirm the outcome this assay logged for COc1ccc(C(=O)Sc2cccc3cccnc23)cc1F ? 0 (no)

Record lookup: outcome of this test for O=C(Sc1cccc2cccnc12)c1ccc(C(F)(F)F)cc1 ? 0 (no)

Recorded test outcome, item CC(C)Cc1ccc(C(=O)Sc2cccc3cccnc23)cc1 0 (no)

These measurements were taken from PubChem BioAssay AID686932.
